These data points were gathered from patent US8440724B2.

Test Target: human norepinephrine transporter (hNET) (Homo sapiens, UniProt P23975)
Construct: expressed in transfected cells; host or cells: HEK-293, stably transfected
Sequence (P23975 whole entry): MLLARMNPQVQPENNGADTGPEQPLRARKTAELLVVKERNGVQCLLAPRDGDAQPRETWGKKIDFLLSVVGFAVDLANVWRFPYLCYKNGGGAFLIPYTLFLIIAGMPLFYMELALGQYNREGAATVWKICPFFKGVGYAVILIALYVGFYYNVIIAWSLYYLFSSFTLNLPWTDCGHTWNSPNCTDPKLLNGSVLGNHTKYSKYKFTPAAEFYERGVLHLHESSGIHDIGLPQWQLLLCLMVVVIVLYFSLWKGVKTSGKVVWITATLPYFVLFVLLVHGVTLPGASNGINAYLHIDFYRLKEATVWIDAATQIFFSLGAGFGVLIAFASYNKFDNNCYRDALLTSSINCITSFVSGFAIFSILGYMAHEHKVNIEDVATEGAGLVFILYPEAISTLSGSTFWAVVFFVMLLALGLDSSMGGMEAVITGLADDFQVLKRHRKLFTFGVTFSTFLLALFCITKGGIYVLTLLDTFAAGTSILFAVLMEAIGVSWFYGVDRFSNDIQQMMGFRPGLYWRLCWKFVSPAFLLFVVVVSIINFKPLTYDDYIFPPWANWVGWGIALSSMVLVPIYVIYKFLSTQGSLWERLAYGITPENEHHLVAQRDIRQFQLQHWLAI
Assay Text: Radioligand binding to cloned hNET, [3H]nisoxetine, HEK-293 cell membranes
Run Conditions: Geometric Mean ± SEM; HCl salts; read-out: Equilibrium Dissociation Constant (KD) for Transporter Binding, hNET (N)
Measured Parameter: Kd (nM)
Write down the numeric answer in nM and omit the unit.

Some solved cases for reference:
CN(C)C[C@H](c1ccc2ccccc2c1)[C@H](N)c1ccccc1    12.6
CNC[C@@H](c1ccc2ccccc2c1)[C@H](N)c1ccccc1    166
CN1CO[C@H](c2ccccc2)[C@@H](c2ccc3ccccc3c2)C1    2.7
CNC[C@@H](c1ccc2ccccc2c1)[C@H](N=[N+]=[N-])c1ccccc1    700

Now for the compound whose Kd we want.
Entry under test: CNC[C@@H](c1ccc2ccccc2c1)[C@@H](Cl)c1ccccc1 . Its Kd was 234
